- run_description: Inhibition of aggregation of human DHFR-fused amyloid beta (1 to 42) expressed in yeast harboring erg6delta assessed as increase in yeast viability measured up to 20 hrs in presence of MTX
endpoint_label: IC50 (nM)
Reply numerically in nM, unit not repeated.

Query string: Can you look up the measured IC50 of O=C(Nc1ccccc1)Nc1ccc(Cl)cc1[N+](=O)[O-] for me?
Result string: 900

Query string: Can you look up the measured IC50 of O=S(=O)(Nc1ccc(N2CCCCC2)cc1)c1cc(Cl)sc1Cl for me?
Result string: 700

Query string: Can you look up the measured IC50 of Cc1nc2sc3c(c2c(=O)o1)CCCC3 for me?
Result string: 1200

Query string: Can you look up the measured IC50 of Nc1c(S(=O)(=O)c2ccc(Cl)cc2)cnc2cc(-c3ccccc3)nn12 for me?
Result string: 2300

Source of measurements: BindingDB's records for doi:10.1021/jm301186p
